target: T1, human LILRB2 expressed on cells (293T-LILRB2, CHO-K1-LILRB2) (human, UniProt Q8N423 22-597); test: flow cytometry, blockade of PE-HLA-G tetramer binding to 293T-huLILRB2 cells
T1 construct: whole, on cells; the cell line is named under assay; also called HEK293T-LILRB2
T1 sequence (Q8N423 22-597): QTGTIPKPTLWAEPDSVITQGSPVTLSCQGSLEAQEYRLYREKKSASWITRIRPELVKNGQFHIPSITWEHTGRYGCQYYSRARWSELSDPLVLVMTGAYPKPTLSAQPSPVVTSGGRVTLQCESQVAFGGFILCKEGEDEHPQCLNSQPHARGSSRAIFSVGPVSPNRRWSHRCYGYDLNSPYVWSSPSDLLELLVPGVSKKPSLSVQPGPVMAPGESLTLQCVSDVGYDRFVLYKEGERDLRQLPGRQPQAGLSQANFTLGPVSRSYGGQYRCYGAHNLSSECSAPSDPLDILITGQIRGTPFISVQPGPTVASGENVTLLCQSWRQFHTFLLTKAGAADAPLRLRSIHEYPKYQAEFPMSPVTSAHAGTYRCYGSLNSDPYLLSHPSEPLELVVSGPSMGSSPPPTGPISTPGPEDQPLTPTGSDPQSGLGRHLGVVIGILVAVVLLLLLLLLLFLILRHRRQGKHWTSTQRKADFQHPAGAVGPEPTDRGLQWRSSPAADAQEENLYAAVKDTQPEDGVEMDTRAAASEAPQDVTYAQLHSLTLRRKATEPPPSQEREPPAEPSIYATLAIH
pIC50: −log10 of the molar value.
measurement name: pIC50

- binder: "Antibody 11B12 (antibody, V domains shown, Mouse hybridoma mAb purified from ascites) VH: DVQLQESGPGLVKPSQSLSLTCSVTGYSITSGYYWNWIRQFPGNKLEWMGYISYDGNNNYNPSLKNRISITRDTSKNQFFLKLNSVTTEDTATYYCAREESTMITTAWFAYWGQGTLVTVSA VL: DIQMTQSPASLSVSVGETVTITCRASENIYSNLAWYQQKQGKSPQLLVYGATNLADGVPSRFSGSGSGTQYSLKINSLQSEDFGSYFCQHFWDTPYTFGGGTKLEIK"
  readout number: 9.07
- binder: "Antibody 14F1 (antibody, V domains shown, Mouse hybridoma mAb purified from ascites) VH: QVQLKESGPGLVAPSQSLSITCTVSGFSLTTYGVHWVRQPPGKGLEWLGVIWTGGSTNYNSALMSRLSIIKDNSKSQVFLKMNSLQTDDTAIYYCARGGYGHTMDYWGQGTSVTVSS VL: DIVMTQSHKFMSTSVGDRVSITCKASQDVSIAVAWYQQKPGQFPKLLIYSASYRYTGVPDRFTGGGSGTDFTFTISSVQAEDLAVYYCQQHYSTPFTFGSGTKLEIK"
  readout number: 9.09
- binder: "Antibody 9H6 (antibody, V domains shown, Mouse hybridoma mAb purified from ascites) VH: EVQLQQSGAELVRPGALVKLSCKASGFNVKDYYMHWVKQRPEQGLEWIGWIDPKNGNGIYDPKFQGKASITADTSSNTAYLQLSSLTSEDTSVYYCARGDYFGSSYLFAYWGQGTLVTVSA VL: DIVMTQSHKFMSTSVGDRVSITCKASQDVSTAVAWYQQKPGQSPKLLIYSASYRYTGVPDRFTGSGSGTDFTFTISSVQAEDLAVYYCQQHYSTPWTFGGGAKLEIK"
  readout number: 8.51
- binder: "Antibody 9B6 (antibody, V domains shown, Mouse hybridoma mAb purified from ascites) VH: DVQLVESGGGLVQPGWSRILSCAASGFTFSNFGMHWVRQAPEKGLEWVAYISSGSGTIYYSDTVRGRFTISRDNPKNTLFLLMTSLRSEDTAMYYCTRSDYDGDWFFDVWGAGTTVTVSS VL: DIVMTQSHRFLSTSVGDRVTITCKASQDVTTAVAWCQQKPGQSPKLLIYSASFRYTGVPDRFTGSGSGTDFTFTINNVQAEDLALYYCQQHFTTPLTFGAGTKLELK"
  readout number: 9.21
